molecular target: FGFR1 (UniProt P11362); experiment: phosphorylation enrichment, bacterial display (enrichment ratio); higher = better substrate or ligand; peptides without Tyr show the background;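 also: 11-residue human phosphosite peptides and single-mutation variants displayed on the E. coli surface, counted by deep sequencing, each peptide's frequency after selection divided by its frequency in the unselected input library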;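 also: frequency after pTyr selection over input frequency; kinase dosed for 20-30% of maximal phosphorylation in three min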
Sequence (P11362 whole entry, looked up): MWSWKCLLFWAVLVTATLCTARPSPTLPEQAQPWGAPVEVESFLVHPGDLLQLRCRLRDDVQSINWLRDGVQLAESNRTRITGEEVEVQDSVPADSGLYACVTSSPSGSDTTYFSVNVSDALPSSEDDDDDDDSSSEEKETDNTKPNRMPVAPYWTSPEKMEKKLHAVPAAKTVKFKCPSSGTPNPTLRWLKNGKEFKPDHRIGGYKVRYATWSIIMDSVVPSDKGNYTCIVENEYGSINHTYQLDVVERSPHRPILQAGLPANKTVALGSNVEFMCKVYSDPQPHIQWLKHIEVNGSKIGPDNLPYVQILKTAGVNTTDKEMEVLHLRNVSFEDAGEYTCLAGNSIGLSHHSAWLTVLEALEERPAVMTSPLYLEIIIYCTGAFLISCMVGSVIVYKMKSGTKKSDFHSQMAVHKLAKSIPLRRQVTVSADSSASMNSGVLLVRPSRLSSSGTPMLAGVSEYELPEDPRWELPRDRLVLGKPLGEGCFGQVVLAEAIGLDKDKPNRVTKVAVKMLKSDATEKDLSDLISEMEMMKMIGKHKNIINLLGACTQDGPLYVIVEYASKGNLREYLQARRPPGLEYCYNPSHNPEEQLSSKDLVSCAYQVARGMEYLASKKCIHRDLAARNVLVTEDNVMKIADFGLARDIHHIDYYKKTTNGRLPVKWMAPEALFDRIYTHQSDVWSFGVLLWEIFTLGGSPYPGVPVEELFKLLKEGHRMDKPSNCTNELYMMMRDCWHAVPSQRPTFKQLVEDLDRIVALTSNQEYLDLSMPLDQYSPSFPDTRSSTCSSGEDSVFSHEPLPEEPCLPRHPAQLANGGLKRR
# cutoff 0.6 applies to phosphorylation enrichment; >= gives 1 (yes), < gives 0 (no)

> print(dat)
                      sequence.input                  target  label.value
1  LARDMDDKEFF [MET_Y1230_Y1230D_YF]  FGFR1 (UniProt P11362)       0 (no)
2       EPNSRYTFKLE [USH2A_Y3745_YF]  FGFR1 (UniProt P11362)       0 (no)
3             NVKGIYAVGDV [GSR_Y371]  FGFR1 (UniProt P11362)       0 (no)
4     EYYENYIEELK [PARP4_Y218_F215Y]  FGFR1 (UniProt P11362)      1 (yes)
5       YEEDSYVERSQ [RET_Y905_K907E]  FGFR1 (UniProt P11362)       0 (no)

[ask] Is it the case that HLGNQYVNVMN [SLC3A1_Y461_R456H] has phosphorylation enrichment reaching or exceeding 0.6?
[reply] 1 (yes)

[ask] Is it the case that EQKKYSNAMKK [SCN5A_Y1495_Y1495S] has phosphorylation enrichment reaching or exceeding 0.6?
[reply] 0 (no)

[ask] Is it the case that EREYKYDAHNY [OAT_Y50_G51D] has phosphorylation enrichment reaching or exceeding 0.6?
[reply] 0 (no)

[ask] Is it the case that LEISPYMLSGR [LRRK2_Y1718] has phosphorylation enrichment reaching or exceeding 0.6?
[reply] 1 (yes)

[ask] Is it the case that SAASGYSDVTD [DTX2_Y425_T421A] has phosphorylation enrichment reaching or exceeding 0.6?
[reply] 1 (yes)

Data credit: the supplement of paper PMC10065799
